- Assayed Target: BRD4 (Homo sapiens, UniProt O60885)
- Construct: HEK293 containing a HiBit insertion for BRD4; endogenous in cells; host or cells: HEK293 with a HiBiT insertion for BRD4
- Experimental Protocol: Assay 1 - Degradation of HiBit-BRD4 in HEK293
- Type: cell-based
- Test Parameters: HiBit-BRD4 in HEK293, 6 h treatment
Reported Metric: Dmax

Compound: CC(=O)N1c2ccc(-c3ccc(C(=O)NCCOCCOCCOCCOCCOCCNC(=O)C4CC(c5ccccc5)CN(C(=O)/C(C#N)=C/c5ccn(C)n5)C4)cc3)cc2[C@H](Nc2ccc(Cl)cc2)C[C@@H]1C (some centres unmarked) [Example 13ab]
Assayed Target: BRD4 (Homo sapiens, UniProt O60885)
Dmax: 50 to 70%
//
Compound: CC(=O)N1c2ccc(-c3ccc(C(=O)NCCOCCOCCOCCOCCOCCNC(=O)C4CCCN(C(=O)/C(C#N)=C/C(C)(C)CN5CCOCC5)C4)cc3)cc2[C@H](Nc2ccc(Cl)cc2)C[C@@H]1C (some centres unmarked) [Example 13e]
Assayed Target: BRD4 (Homo sapiens, UniProt O60885)
Dmax: 30 to 50%
//
Compound: CC(=O)N1c2ccc(-c3ccc(C(=O)NCCOCCOCCOCCOCCOCCNC(=O)[C@@H]4CN(C(=O)/C(C#N)=C/c5nccs5)C[C@H]4c4ccc(F)cc4)cc3)cc2[C@H](Nc2ccc(Cl)cc2)C[C@@H]1C [Example 15ae]
Assayed Target: BRD4 (Homo sapiens, UniProt O60885)
Dmax: ≥ 70%
//
Compound: CC(=O)N1c2ccc(-c3ccc(C(=O)NCCOCCOCCOCCOCCOCCNC(=O)[C@@H]4CN(C(=O)/C(C#N)=C/C(C)(C)C)C[C@H]4CC(C)C)cc3)cc2[C@H](Nc2ccc(Cl)cc2)C[C@@H]1C [Example 15l]
Assayed Target: BRD4 (Homo sapiens, UniProt O60885)
Dmax: ≥ 70%

Here is another compound to look at.
(Q) What reported Dmax corresponds to CC(=O)N1c2ccc(-c3ccc(C(=O)NCCOCCOCCOCCOCCOCCNC(=O)C4CCCN(C(=O)/C(C#N)=C/C(C)(C)C)C4)cc3)cc2[C@H](Nc2ccc(Cl)cc2)C[C@@H]1C (some centres unmarked) [Example 13b] on BRD4 (Homo sapiens, UniProt O60885)?
(A) ≥ 70%

====

- Assayed Target: BRD9 (Homo sapiens, UniProt Q9H8M2)
- Sequence (Q9H8M2 whole entry): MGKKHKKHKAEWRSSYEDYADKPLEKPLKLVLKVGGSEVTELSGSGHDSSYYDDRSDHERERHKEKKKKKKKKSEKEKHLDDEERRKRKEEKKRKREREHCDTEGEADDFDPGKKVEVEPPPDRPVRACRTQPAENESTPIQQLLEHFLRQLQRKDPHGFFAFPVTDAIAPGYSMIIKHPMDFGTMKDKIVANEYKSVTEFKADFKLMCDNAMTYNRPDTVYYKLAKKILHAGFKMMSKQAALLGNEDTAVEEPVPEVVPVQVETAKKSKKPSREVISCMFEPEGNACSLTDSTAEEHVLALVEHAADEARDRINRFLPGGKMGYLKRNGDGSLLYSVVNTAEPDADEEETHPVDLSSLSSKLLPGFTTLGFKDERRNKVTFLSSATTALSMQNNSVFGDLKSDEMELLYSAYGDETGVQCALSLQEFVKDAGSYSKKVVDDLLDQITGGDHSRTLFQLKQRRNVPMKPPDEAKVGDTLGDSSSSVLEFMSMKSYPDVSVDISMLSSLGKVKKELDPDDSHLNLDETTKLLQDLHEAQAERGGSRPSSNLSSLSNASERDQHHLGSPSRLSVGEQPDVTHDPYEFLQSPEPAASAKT
- Experimental Protocol: Assay Protocol 2 - Degradation of BRD9 (IF) in MV4-11 cells
- Type: cell-based
- Parameters: host or cells: MV4-11
- Test Parameters: Assay Protocol 2: BRD9 immunofluorescence, 24 hours
Reported Metric: DC50

Compound: COc1cc(-c2cn(C)c(=O)c(C)c2C)cc(OC)c1CN1C2CC1CN(C(=O)/C(C#N)=C/c1cccc(Br)n1)C2 (mixture of isomers) [BRD9o]
DC50: < 25 nM

(Q) Consider the compound shown here: COc1cc(-c2cn(C)c(=O)c(C)c2C)cc(OC)c1CN(C)C1CCN(C(=O)/C(C#N)=C/c2cccc(Br)n2)CC1 [BRD9z] What is its recorded DC50?
(A) < 25 nM

(Q) What value of DC50 has been reported for the following compound? COc1cc(-c2cn(C)c(=O)c(C)c2C)cc(OC)c1CN1CCN(C(=O)/C(C#N)=C/C(C)(C)C)CC1 [BRD9a]
(A) < 25 nM

(Q) Value lookup for DC50; key = COc1cc(-c2cn(C)c(=O)c(C)c2C)cc(OC)c1CN1CC2CC1CN2C(=O)/C(C#N)=C/C(C)(C)C (mixture of isomers) [BRD9b]
(A) > 200 nM

(Q) Record request: DC50 value, item COc1cc(-c2cn(C)c(=O)c(C)c2C)cc(OC)c1CN1C2CC1CN(C(=O)/C(C#N)=C/C1(F)CC1)C2 [BRD9ag]
(A) < 25 nM

(Q) What does the data say about its DC50? Entry: COc1cc(-c2cn(C)c(=O)c(C)c2C)cc(OC)c1CN(C)C1CCN(C(=O)/C(C#N)=C/C(C)(C)C)CC1 [BRD9d]
(A) < 25 nM

(Q) Looking for the measured DC50 of COc1cc(-c2cn(C)c(=O)c(C)c2C)cc(OC)c1CN1CCN(C(=O)C2CC(C)CN(C(=O)/C(C#N)=C/C(C)(C)C)C2)CC1 (centres unmarked) [BRD9ba] , can you help?
(A) < 25 nM

(Q) What measured DC50 goes with COc1cc(-c2cn(C)c(=O)c(C)c2C)cc(OC)c1CN1CC2CC1CN2C(=O)/C(C#N)=C/c1nccs1 (mixture of isomers) [BRD9i] ?
(A) > 200 nM

(Q) Consider the compound shown here: COc1ccc([C@@H]2CN(C(=O)/C(C#N)=C/c3nccs3)C[C@H]2C(=O)N2CCN(Cc3c(OC)cc(-c4cn(C)c(=O)c(C)c4C)cc3OC)CC2)cc1 [BRD9be] What is its recorded DC50?
(A) < 25 nM

(Q) Which measured DC50 value corresponds to COc1cc(-c2cn(C)c(=O)c(C)c2C)cc(OC)c1CN1CCC2(CC1)CCN(C(=O)/C(C#N)=C/c1cccc(Br)n1)CC2 [BRD9r] ?
(A) < 25 nM

(Q) So what's the measured DC50 for this one? COc1cc(-c2cn(C)c(=O)c(C)c2C)cc(OC)c1CN1CC2CCC(C1)N2C(=O)/C(C#N)=C/c1nccs1 (mixture of isomers) [BRD9q]
(A) > 200 nM

(Q) Need DC50 of COc1cc(-c2cn(C)c(=O)c(C)c2C)cc(OC)c1C(=O)N1CCN(C(=O)/C(C#N)=C/C(C)(C)C)CC1 [BRD9s] , thanks.
(A) 25 to 200 nM

(Q) // lookup DC50 for COc1cc(-c2cn(C)c(=O)c(C)c2C)cc(OC)c1C(=O)N1CCCN(C(=O)/C(C#N)=C/C(C)(C)C)CC1 [BRD9v]
(A) 25 to 200 nM

(Q) I would be grateful if you could share the reported DC50 for COc1cc(-c2cn(C)c(=O)c(C)c2C)cc(OC)c1C(=O)N1CC2CC1CN2C(=O)/C(C#N)=C/C(C)(C)C (mixture of isomers) [BRD9t] .
(A) 25 to 200 nM

====

- Assayed Target: SMARCA2 (Homo sapiens)
- Construct: a HiBiT tag knocked in at the 3′ end of SMARCA2; host or cells: HeLa SMARCA2 HiBiT knock-in cells
- Sequence (P51531 whole entry): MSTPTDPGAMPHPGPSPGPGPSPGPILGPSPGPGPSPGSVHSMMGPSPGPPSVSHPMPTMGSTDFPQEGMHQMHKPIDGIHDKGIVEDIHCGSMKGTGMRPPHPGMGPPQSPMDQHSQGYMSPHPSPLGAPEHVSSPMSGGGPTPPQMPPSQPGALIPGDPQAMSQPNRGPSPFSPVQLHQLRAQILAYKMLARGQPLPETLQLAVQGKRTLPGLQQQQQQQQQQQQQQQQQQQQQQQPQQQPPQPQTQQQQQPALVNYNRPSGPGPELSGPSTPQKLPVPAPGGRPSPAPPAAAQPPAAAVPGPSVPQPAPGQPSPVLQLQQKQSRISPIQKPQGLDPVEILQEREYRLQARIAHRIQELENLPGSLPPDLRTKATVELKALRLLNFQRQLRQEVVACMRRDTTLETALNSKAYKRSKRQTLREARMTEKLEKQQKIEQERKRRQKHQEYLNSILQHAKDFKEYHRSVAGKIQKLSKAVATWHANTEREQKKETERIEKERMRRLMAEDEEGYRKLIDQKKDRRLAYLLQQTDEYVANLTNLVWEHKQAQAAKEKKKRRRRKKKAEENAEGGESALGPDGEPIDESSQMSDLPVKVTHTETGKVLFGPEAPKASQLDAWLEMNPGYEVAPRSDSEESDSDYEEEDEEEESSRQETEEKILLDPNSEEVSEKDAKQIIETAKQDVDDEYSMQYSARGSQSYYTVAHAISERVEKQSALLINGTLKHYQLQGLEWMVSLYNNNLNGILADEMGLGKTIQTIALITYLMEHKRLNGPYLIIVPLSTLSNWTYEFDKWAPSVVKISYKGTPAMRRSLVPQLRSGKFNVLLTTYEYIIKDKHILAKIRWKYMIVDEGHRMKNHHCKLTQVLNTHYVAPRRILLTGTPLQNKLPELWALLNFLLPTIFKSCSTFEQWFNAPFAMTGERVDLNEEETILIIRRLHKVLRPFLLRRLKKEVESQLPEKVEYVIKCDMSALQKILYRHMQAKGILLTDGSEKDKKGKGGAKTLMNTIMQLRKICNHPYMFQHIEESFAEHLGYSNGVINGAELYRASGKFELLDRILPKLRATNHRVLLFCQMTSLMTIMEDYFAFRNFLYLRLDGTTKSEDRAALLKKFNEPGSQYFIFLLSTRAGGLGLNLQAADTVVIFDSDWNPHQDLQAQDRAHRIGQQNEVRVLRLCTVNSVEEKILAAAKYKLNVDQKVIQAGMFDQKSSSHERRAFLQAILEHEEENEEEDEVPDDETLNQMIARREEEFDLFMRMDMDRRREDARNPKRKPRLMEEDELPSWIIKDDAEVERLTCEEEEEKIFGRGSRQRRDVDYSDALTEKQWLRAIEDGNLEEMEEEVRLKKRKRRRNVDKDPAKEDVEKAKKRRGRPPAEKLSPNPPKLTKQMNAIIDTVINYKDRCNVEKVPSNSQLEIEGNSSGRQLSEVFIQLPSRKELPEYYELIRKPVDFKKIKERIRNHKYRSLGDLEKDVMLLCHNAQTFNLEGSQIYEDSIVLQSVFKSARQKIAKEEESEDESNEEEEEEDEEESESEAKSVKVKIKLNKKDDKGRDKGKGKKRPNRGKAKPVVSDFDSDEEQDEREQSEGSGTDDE
- Experimental Protocol: SMARCA2 degradation, HeLa SMARCA2 HiBiT cells (Assay Protocol 1)
- Assay type: cell-based
- Test Parameters: 24 hours after compound addition
Reported Metric: Dmax

Compound: COc1ccc(C2CC(C(=O)N[C@@H]3CCCN(c4cc(-c5ccccc5O)nnc4N)C3)CN(C(=O)/C(C#N)=C/c3ccn(C)n3)C2)cc1 (some centres unmarked) [SMARCA2i]
Dmax: 50 to 65%

Compound: CC(C)C1CC(C(=O)N[C@@H]2CCCN(c3cc(-c4ccccc4O)nnc3N)C2)CN(C(=O)/C(C#N)=C/c2nccs2)C1 (some centres unmarked) [SMARCA2g]
Dmax: 65 to 80%

Compound: CC(C)(C)/C=C(\C#N)C(=O)N1CCN(CC(=O)N2CCc3[nH]c4nnc(-c5ccccc5O)cc4c3C2)CC1 [SMARCA2e]
Dmax: 50 to 65%

(Q) Given the entry CC(C)(C)/C=C(\C#N)C(=O)N1C[C@@H](C(=O)N[C@@H]2CCCN(c3cc(-c4ccccc4O)nnc3N)C2)[C@H](C2CCCCC2)C1 [SMARCA2h] , report its measured Dmax.
(A) 65 to 80%

(Q) // Dmax lookup, key: N#C/C(=C\c1nccs1)C(=O)N1CCCC(C(=O)N[C@@H]2CCCN(c3cc(-c4ccccc4O)nnc3N)C2)C1 (some centres unmarked) [SMARCA2l]
(A) 50 to 65%

====

Reported Dmax values for the following compounds.
- Assayed Target: BRD4 (Homo sapiens)
- Construct: HEK293 containing a HiBit insertion for BRD4; endogenous in cells; host or cells: HEK293 with a HiBiT insertion for BRD4
- Experimental Protocol: Assay 1 - Degradation of HiBit-BRD4 in HEK293
- Type: cell-based
- Test Parameters: HiBit-BRD4 in HEK293, 6 h treatment

The following compounds have reported results that may help.
Compound: CC(=O)N1c2ccc(-c3ccc(C(=O)NCCOCCOCCOCCOCCOCCNC(=O)C4CC(C5CCCCC5)CN(C(=O)/C(C#N)=C/c5nccs5)C4)cc3)cc2[C@H](Nc2ccc(Cl)cc2)C[C@@H]1C (stereo partly drawn) [Example 13p]
Dmax: ≥ 70%
//
Compound: CC(=O)N1c2ccc(-c3ccc(C(=O)NCCOCCOCCOCCOCCOCCNC(=O)C4CCCN(C(=O)/C(C#N)=C/c5ccn(C)n5)C4)cc3)cc2[C@H](Nc2ccc(Cl)cc2)C[C@@H]1C (stereo partly drawn) [Example 13c]
Dmax: < 50%

(Q) Reported Dmax, compound CC(=O)N1c2ccc(-c3ccc(C(=O)NCCOCCOCCOCCOCCOCCNC(=O)C4CC(C5CCCCC5)CN(C(=O)/C(C#N)=C/C(C)(C)CN5CCOCC5)C4)cc3)cc2[C@H](Nc2ccc(Cl)cc2)C[C@@H]1C (stereo partly drawn) [Example 13t] : ____
(A) ≥ 70%
